# tested on: galectin-3 CRD (Homo sapiens, UniProt P17931)
# Sequence (P17931 118-248 limits assumed): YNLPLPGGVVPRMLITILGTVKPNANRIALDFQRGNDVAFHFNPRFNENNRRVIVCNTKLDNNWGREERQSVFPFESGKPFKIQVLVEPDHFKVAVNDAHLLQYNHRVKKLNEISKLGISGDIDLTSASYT
property name: Kd (µM)
Give just the numeric value; µM need not be written.

INPUT: Record request: Kd value, item CC(=O)N[C@H]1C(O)O[C@H](CO)[C@H](O)[C@@H]1O[C@@H]1O[C@H](CO)[C@H](O)[C@H](O)[C@H]1O (stereo partly shown) [TF]
OUTPUT: 248

These measurements were taken from paper PMC4520625.
